Target: MMP-7 (Matrilysin) (Homo sapiens, UniProt P09237)
Construct: made in house; host or cells: E. coli
Sequence (P09237 95-267): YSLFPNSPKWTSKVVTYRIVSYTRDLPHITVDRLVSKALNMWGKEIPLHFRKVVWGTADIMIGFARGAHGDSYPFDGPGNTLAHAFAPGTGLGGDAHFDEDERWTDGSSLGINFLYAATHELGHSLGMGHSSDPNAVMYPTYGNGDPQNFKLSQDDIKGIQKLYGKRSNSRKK
Assay: Ki determination with fluorogenic synthetic substrates, recombinant MMP-7
Format: biochemical
Conditions: @ 1 μM inhibitor; read-out: percentage of inhibition, MMP-7
// inhibition at 1 µM lookup, one value per entry
assay metric: inhibition at 1 µM (%)

In [3]: df
Out[3]:
                                   compound  unit_string  observed_value
0  NC(=O)C(Cc1c[nH]c2ccccc12)NC(=O)C(CCCc1ccccc1)CP(=O)(O)C(Cc1ccccc1)NC(=O)COCc1ccccc1 (centres unmarked)            %              33
1  NC(=O)C(Cc1c[nH]c2ccccc12)NC(=O)C(CCCc1ccccc1)CP(=O)(O)C(Cc1ccccc1)NC(=O)CNc1cc(Cl)ccc1O (centres unmarked)            %              48
2  NC(=O)C(Cc1c[nH]c2ccccc12)NC(=O)C(CCCc1ccccc1)CP(=O)(O)C(Cc1ccccc1)NC(=O)CNc1ccccc1 (centres unmarked)            %              16
3  NC(=O)C(Cc1c[nH]c2ccccc12)NC(=O)C(CCCc1ccccc1)CP(=O)(O)C(Cc1ccccc1)NC(=O)c1cc2cc(Cl)cc(Cl)c2oc1=O (centres unmarked)            %              37
4  CC(NC(=O)OCc1ccccc1)C(=O)NC(Cc1ccccc1)P(=O)(O)CC(CCCc1ccccc1)C(=O)NC(Cc1c[nH]c2ccccc12)C(N)=O (centres unmarked)            %              18
5  CC(=O)NC(Cc1ccccc1)P(=O)(O)CC(CCCc1ccccc1)C(=O)NC(Cc1c[nH]c2ccccc12)C(N)=O (centres unmarked)            %              16
6  CC(C)CC(NC(=O)OCc1ccccc1)C(=O)NC(Cc1ccccc1)P(=O)(O)CC(CCCc1ccccc1)C(=O)NC(Cc1c[nH]c2ccccc12)C(N)=O (centres unmarked)            %              32
7  NC(=O)C(Cc1c[nH]c2ccccc12)NC(=O)C(CCCc1ccccc1)CP(=O)(O)C(Cc1ccccc1)NC(=O)CNc1cccc(Cl)c1 (centres unmarked)            %              25

###

Biological target: MMP-9 (Gel-B) (Homo sapiens)
Sequence (P14780 94-707): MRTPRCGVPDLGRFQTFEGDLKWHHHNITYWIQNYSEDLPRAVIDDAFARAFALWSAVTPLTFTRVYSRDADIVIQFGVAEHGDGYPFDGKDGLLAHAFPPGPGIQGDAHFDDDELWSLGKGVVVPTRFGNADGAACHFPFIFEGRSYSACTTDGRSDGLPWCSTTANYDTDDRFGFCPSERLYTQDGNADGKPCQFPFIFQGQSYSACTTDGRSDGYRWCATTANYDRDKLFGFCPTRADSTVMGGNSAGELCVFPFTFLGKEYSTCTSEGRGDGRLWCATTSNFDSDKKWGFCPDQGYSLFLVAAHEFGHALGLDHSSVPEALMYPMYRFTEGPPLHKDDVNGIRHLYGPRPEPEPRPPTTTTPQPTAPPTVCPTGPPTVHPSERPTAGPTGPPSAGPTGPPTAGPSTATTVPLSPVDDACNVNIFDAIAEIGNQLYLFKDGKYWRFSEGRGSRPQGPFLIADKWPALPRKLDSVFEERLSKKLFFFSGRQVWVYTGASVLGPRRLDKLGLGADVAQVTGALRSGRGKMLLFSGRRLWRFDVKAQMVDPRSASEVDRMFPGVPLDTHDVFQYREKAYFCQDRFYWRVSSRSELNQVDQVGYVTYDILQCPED
Assay: Ki determination with fluorogenic synthetic substrates, recombinant MMP-9
Details: Tris/50 mM HCl buffer, pH 6.8, 10 mM CaCl2, 25° C.; read-out: affinity constant Ki, MMP-9 Gel-B

molecule	Ki [nM]
NC(=O)C(Cc1c[nH]c2ccccc12)NC(=O)C(CCCCc1ccccc1)CP(=O)(O)C(Cc1ccccc1)NC(=O)OCc1ccccc1 (centres unmarked) [Compound 16]	70
NC(=O)C(Cc1c[nH]c2ccccc12)NC(=O)C(CCCc1ccccc1)CP(=O)(O)C(Cc1ccccc1)NC(=O)CNc1ccccc1 (centres unmarked) [Compound 27]	6
CC(C)CC(NC(=O)OCc1ccccc1)C(=O)NC(Cc1ccccc1)P(=O)(O)CC(CCCc1ccccc1)C(=O)NC(Cc1c[nH]c2ccccc12)C(N)=O (centres unmarked) [Compound 35]	22
NC(=O)C(Cc1c[nH]c2ccccc12)NC(=O)C(CCCc1ccccc1)CP(=O)(O)C(Cc1ccccc1)NC(=O)OCc1ccccc1 (single isomer, unassigned) [Compound 15 R I, ZPheΨ(PO2CpH2)pPheTrpNH2]	42
COc1ccc(CSCC(CP(=O)(O)C(Cc2ccccc2)NC(=O)OCc2ccccc2)C(=O)NC(Cc2c[nH]c3ccccc23)C(N)=O)cc1 (centres unmarked) [Compound 18]	3
CC(NC(=O)OCc1ccccc1)P(=O)(O)CC(CSCc1ccccc1)C(=O)NC(Cc1c[nH]c2ccccc12)C(N)=O (centres unmarked) [Compound 11]	6
NC(=O)C(Cc1c[nH]c2ccccc12)NC(=O)C(CCCc1ccccc1)CP(=O)(O)C(Cc1ccccc1)NC(=O)OCc1ccccc1 (single isomer, unassigned) [Compound 15 S I]	33
NC(=O)C(Cc1c[nH]c2ccccc12)NC(=O)C(CCCc1ccccc1)CP(=O)(O)C(Cc1ccccc1)NC(=O)OCc1ccccc1 (single isomer, unassigned) [Compound 15 R II]	78
CC(=O)NC(Cc1ccccc1)P(=O)(O)CC(CCCc1ccccc1)C(=O)NC(Cc1c[nH]c2ccccc12)C(N)=O (centres unmarked) [Compound 25]	35
NC(=O)C(Cc1c[nH]c2ccccc12)NC(=O)C(CCCc1ccccc1)CP(=O)(O)C(Cc1ccccc1)NC(=O)c1cc2ccccc2[nH]1 (centres unmarked) [Compound 30]	8
CC(NC(=O)OCc1ccccc1)P(=O)(O)CC(COCc1ccccc1)C(=O)NC(Cc1c[nH]c2ccccc12)C(N)=O (centres unmarked) [Compound 10]	44
NC(=O)C(Cc1c[nH]c2ccccc12)NC(=O)C(CCCc1ccccc1)CP(=O)(O)C(Cc1ccccc1)NC(=O)COCc1ccccc1 (centres unmarked) [Compound 26]	10
NC(=O)C(Cc1c[nH]c2ccccc12)NC(=O)C(CCCc1ccccc1)CP(=O)(O)C(Cc1ccccc1)NC(=O)c1cc2cc(Cl)cc(Cl)c2oc1=O (centres unmarked) [Compound 33]	110
NC(=O)C(Cc1c[nH]c2ccccc12)NC(=O)C(CCCc1ccccc1)CP(=O)(O)C(Cc1ccccc1)NC(=O)c1cc2c(Cl)cc(Cl)cc2[nH]1 (centres unmarked) [Compound 31]	7
NC(=O)[C@H](Cc1c[nH]c2ccccc12)NC(=O)C(CCCc1ccccc1)CP(=O)(O)C(Cc1ccccc1)NC(=O)OCc1ccccc1 (mixture of isomers) [Compound 15, ZPheΨ(PO2CpH2)pPheTrpNH2]	10
CC(NC(=O)OCc1ccccc1)P(=O)(O)CC(Cc1ccccc1)C(=O)NC(Cc1c[nH]c2ccccc12)C(N)=O (centres unmarked) [Compound 7]	280
NC(=O)C(Cc1c[nH]c2ccccc12)NC(=O)C(CCCc1ccccc1)CP(=O)(O)C(Cc1ccccc1)NC(=O)CNc1cccc(Cl)c1 (centres unmarked) [Compound 28]	6
CC(NC(=O)OCc1ccccc1)C(=O)NC(Cc1ccccc1)P(=O)(O)CC(CCCc1ccccc1)C(=O)NC(Cc1c[nH]c2ccccc12)C(N)=O (centres unmarked) [Compound 34]	10
CC(NC(=O)OCc1ccccc1)P(=O)(O)CC(CCCc1ccccc1)C(=O)NC(Cc1c[nH]c2ccccc12)C(N)=O (centres unmarked) [Compound 9]	23
NC(=O)C(Cc1c[nH]c2ccccc12)NC(=O)C(CCCc1ccccc1)CP(=O)(O)C(Cc1ccccc1)NC(=O)CNc1cc(Cl)ccc1O (centres unmarked) [Compound 29]	34

###

Molecular target: UniProt P03956
Assay: Ki determination with fluorogenic synthetic substrates, recombinant MMP-1
Conditions: Tris/50 mM HCl buffer, pH 6.8, 10 mM CaCl2, 25° C.; read-out: affinity constant Ki, MMP-1 HFC
pKi: −log10 of the molar value.
assay metric: pKi

molecule	assay metric	observed value
NC(=O)C(Cc1c[nH]c2ccccc12)NC(=O)C(CCCc1ccccc1)CP(=O)(O)C(Cc1ccccc1)NC(=O)c1cc2c(Cl)cc(Cl)cc2[nH]1 (stereo not shown) [Compound 31]	pKi	7.44

###

Below, each entry is listed with its recorded inhibition at 2000 µM.
Biological target: MMP-1 (HFC) (Homo sapiens)
Construct: made in house; host or cells: E. coli
Sequence (P03956 100-469): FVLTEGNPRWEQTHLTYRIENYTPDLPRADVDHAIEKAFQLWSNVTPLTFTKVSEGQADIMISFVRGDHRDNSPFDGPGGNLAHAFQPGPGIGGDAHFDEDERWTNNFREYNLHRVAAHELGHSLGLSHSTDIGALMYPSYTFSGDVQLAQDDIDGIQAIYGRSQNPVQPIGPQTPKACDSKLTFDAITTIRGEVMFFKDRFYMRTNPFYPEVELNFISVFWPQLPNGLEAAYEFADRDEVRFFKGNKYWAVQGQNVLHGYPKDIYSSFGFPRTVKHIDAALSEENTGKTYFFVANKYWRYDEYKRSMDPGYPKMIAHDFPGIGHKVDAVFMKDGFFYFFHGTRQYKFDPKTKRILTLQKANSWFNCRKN
Assay: Ki determination with fluorogenic synthetic substrates, recombinant MMP-1
Assay type: biochemical
Details: @ 2 mM inhibitor; read-out: percentage of inhibition, MMP-1
assay metric: inhibition at 2000 µM (%)

In [3]: df
Out[3]:
                                   compound                study_system           assay_metric  observed_value
0  CC(NC(=O)OCc1ccccc1)P(=O)(O)CC(COCc1ccccc1)C(=O)NC(Cc1c[nH]c2ccccc12)C(N)=O (stereo not shown)  MMP-1 (HFC) (Homo sapiens)  inhibition at 2000 µM              15
1  NC(=O)C(Cc1c[nH]c2ccccc12)NC(=O)C(CCc1ccccc1)CP(=O)(O)C(Cc1ccccc1)NC(=O)OCc1ccccc1 (stereo not shown)  MMP-1 (HFC) (Homo sapiens)  inhibition at 2000 µM              10
2  CC(NC(=O)OCc1ccccc1)P(=O)(O)CC(CCCc1ccccc1)C(=O)NC(Cc1c[nH]c2ccccc12)C(N)=O (stereo not shown)  MMP-1 (HFC) (Homo sapiens)  inhibition at 2000 µM              30
3  NC(=O)[C@H](Cc1c[nH]c2ccccc12)NC(=O)C(CCCc1ccccc1)CP(=O)(O)C(Cc1ccccc1)NC(=O)OCc1ccccc1 (mixture of isomers)  MMP-1 (HFC) (Homo sapiens)  inhibition at 2000 µM              23
4  CC(NC(=O)C(CCCc1ccccc1)CP(=O)(O)C(Cc1ccccc1)NC(=O)OCc1ccccc1)C(N)=O (stereo not shown)  MMP-1 (HFC) (Homo sapiens)  inhibition at 2000 µM               9
5  CC(NC(=O)OCc1ccccc1)P(=O)(O)CC(CSCc1ccccc1)C(=O)NC(Cc1c[nH]c2ccccc12)C(N)=O (stereo not shown)  MMP-1 (HFC) (Homo sapiens)  inhibition at 2000 µM              45
6  NC(=O)C(Cc1c[nH]c2ccccc12)NC(=O)C(COCc1ccccc1)CP(=O)(O)C(Cc1ccccc1)NC(=O)OCc1ccccc1 (stereo not shown)  MMP-1 (HFC) (Homo sapiens)  inhibition at 2000 µM               9
7  CC(CP(=O)(O)C(Cc1ccccc1)NC(=O)OCc1ccccc1)C(=O)NC(Cc1c[nH]c2ccccc12)C(N)=O (stereo not shown)  MMP-1 (HFC) (Homo sapiens)  inhibition at 2000 µM              20
8  CC(NC(=O)OCc1ccccc1)P(=O)(O)CC(Cc1ccccc1)C(=O)NC(Cc1c[nH]c2ccccc12)C(N)=O (stereo not shown)  MMP-1 (HFC) (Homo sapiens)  inhibition at 2000 µM              24
9  CC(NC(=O)OCc1ccccc1)P(=O)(O)CC(CCc1ccccc1)C(=O)NC(Cc1c[nH]c2ccccc12)C(N)=O (stereo not shown)  MMP-1 (HFC) (Homo sapiens)  inhibition at 2000 µM              23
